Ref: patent US20260217697A1

- Tested Target: hTRPV3 (Homo sapiens, UniProt Q8NET8)
- Construct: The commercially available plasmid with the full-length cDNA of hTRPV3 (791 aa) (NM_001258205.2)
- Sequence (Q8NET8 1-791 isoform Q8NET8-2): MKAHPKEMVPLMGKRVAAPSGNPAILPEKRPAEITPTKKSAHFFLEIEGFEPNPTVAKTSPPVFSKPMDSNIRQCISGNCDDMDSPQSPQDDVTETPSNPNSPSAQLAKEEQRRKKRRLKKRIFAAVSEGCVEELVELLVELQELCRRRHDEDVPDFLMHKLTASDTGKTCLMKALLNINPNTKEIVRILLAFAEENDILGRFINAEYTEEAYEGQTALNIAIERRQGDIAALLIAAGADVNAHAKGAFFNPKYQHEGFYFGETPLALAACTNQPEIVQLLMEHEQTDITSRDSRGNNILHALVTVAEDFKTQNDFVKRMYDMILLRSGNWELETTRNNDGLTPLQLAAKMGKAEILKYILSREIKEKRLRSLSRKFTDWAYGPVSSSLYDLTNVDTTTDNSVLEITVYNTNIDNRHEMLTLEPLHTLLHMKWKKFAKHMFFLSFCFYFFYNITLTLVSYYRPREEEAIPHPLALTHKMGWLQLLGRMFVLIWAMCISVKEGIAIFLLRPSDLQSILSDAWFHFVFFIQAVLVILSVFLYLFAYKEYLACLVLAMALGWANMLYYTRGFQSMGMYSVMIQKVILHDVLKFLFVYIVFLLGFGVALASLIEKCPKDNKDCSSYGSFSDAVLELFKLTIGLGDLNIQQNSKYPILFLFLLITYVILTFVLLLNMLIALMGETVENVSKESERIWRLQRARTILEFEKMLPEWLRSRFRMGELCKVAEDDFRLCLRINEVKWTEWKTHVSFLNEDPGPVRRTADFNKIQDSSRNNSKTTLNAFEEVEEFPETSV
- Run Description: Whole-cell patch-clamp recording of hTRPV3 current in transfected HEK293T cells (2-APB induced)
- Cond: current induced by 300 μM 2-APB, compounds tested up to 10 μM, room temperature
Recorded Metric: IC50

Examples with their reported IC50 follow.
{"Molecule": "CCOC(=O)[C@H]1CC[C@@]2(CC1)Oc1cc(Br)ccc1-c1nc(NC(=O)c3c(OC)ncnc3OC)sc12 [compound 129]", "IC50": "100 to 1000 nM"}
{"Molecule": "COc1ncnc(OC)c1C(=O)Nc1nc2c(s1)c(=O)oc1cc(C(F)(F)F)ccc12 [compound 9]", "IC50": "≥ 10000 nM"}
{"Molecule": "CCC1(CC)Oc2cc(C(F)(F)F)ccc2-c2nc(NC(=O)c3c(OC)nc(O)nc3OC)sc21 [compound 79]", "IC50": "≥ 10000 nM"}

Query block: Name the recorded IC50 for COc1ncnc(OC)c1C(=O)Nc1nc2c(s1)C1(CN(C3CCC3)C1)Oc1cc(C(F)(F)F)ccc1-2 [compound 159] .
Result block: < 100 nM

Query block: Name the recorded IC50 for CCC1(CC)Oc2cc(C(F)(F)F)ccc2-c2nc(NC(=O)c3c(OC)ncnc3OCOC)sc21 [compound 122] .
Result block: ≥ 10000 nM

###

Item-by-item account of IC50
- Tested Target: hTRPV3 (Homo sapiens, UniProt Q8NET8)
- Construct: The commercially available plasmid with the full-length cDNA of hTRPV3 (791 aa) (NM_001258205.2)
- Run Description: Whole-cell patch-clamp recording of hTRPV3 current in transfected HEK293T cells (2-APB induced)
- Cond: current induced by 300 μM 2-APB, compounds tested up to 10 μM, room temperature
- Description: Various technologies can be utilized to assess TRPV3 activation in accordance with the present disclosure. For example, in some embodiments, compounds are assessed in in vitro patch clamp experiments. […] All patch-clamp recordings were analyzed using the Clampfit software and GraphPad Prism 6.0 software. Specifically, data are analyzed by calculating the degree of current amplitude after the test compound addition compared with the unblocked agonist-induced current amplitude. […]

Examples with their reported IC50 follow.
{"Compound": "C=CCCC1Oc2cc(C(F)(F)F)ccc2-c2nc(NC(=O)c3c(OC)ncnc3OC)sc21 (stereo not shown) [compound 28]", "Result": "100 to 1000 nM"}
{"Compound": "COc1ncnc(OC)c1C(=O)Nc1nc2c(s1)C1(CN(C(C)C)C1)Oc1cc(C#N)ccc1-2 [compound 148]", "Result": "100 to 1000 nM"}
{"Compound": "CCC1(CC)Oc2nc(C(F)(F)F)ccc2-c2nc(NC(=O)c3c(OC)ncnc3OC)sc21 [compound 60]", "Result": "100 to 1000 nM"}

Query block: Name the recorded IC50 for COc1ncnc(OC)c1C(=O)Nc1nc2c(s1)C(C)(c1ccccc1)Oc1cc(C(F)(F)F)ccc1-2 (stereo not shown) [compound 25] .
Result block: < 100 nM

###

- Tested Target: hTRPV3 (Homo sapiens)
- Construct: The commercially available plasmid with the full-length cDNA of hTRPV3 (791 aa) (NM_001258205.2)
- Run Description: Whole-cell patch-clamp recording of hTRPV3 current in transfected HEK293T cells (2-APB induced)
- Cond: current induced by 300 μM 2-APB, compounds tested up to 10 μM, room temperature
Recorded Metric: IC50

{"Molecule": "COc1ncnc(OC)c1C(=O)Nc1nc2c(s1)C1(CN(CC(C)C)C1)Oc1cc(C(F)(F)F)ccc1-2 [compound 150]", "Result": "< 100 nM"}
{"Molecule": "COc1ncnc(OC)c1C(=O)Nc1nc2c(s1)C1(CCOC1)Oc1cc(C(F)(F)F)ccc1-2 (stereo not drawn) [compound 21]", "Result": "100 to 1000 nM"}
{"Molecule": "CCC(C)(C)C(=O)N1CC2(C1)Oc1cc(C(F)(F)F)ccc1-c1nc(NC(=O)c3c(OC)ncnc3OC)sc12 [compound 74]", "Result": "100 to 1000 nM"}
{"Molecule": "COc1ncnc(OC)c1C(=O)Nc1nc2c(s1)COc1ccc(Cl)cc1-2 [compound 86]", "Result": "1000 to 10000 nM"}
{"Molecule": "COc1ncnc(OC)c1C(=O)Nc1nc2c(s1)C(C)(C)Nc1cc(C(F)(F)F)ccc1-2 [compound 85]", "Result": "1000 to 10000 nM"}
{"Molecule": "COc1ncnc(OC)c1C(=O)Nc1nc2c(s1)Cc1cc(C(F)(F)F)ccc1-2 [compound 84]", "Result": "1000 to 10000 nM"}
{"Molecule": "COc1ncnc(OC)c1C(=O)Nc1nc2c(s1)C1(CCC(C(=O)N(C)Cc3ccccc3)CC1)Oc1cc(C(F)(F)F)ccc1-2 (stereo not drawn) [compound 126]", "Result": "100 to 1000 nM"}
{"Molecule": "COc1ncnc(OC)c1C(=O)Nc1nc2c(s1)C1(CN(CC(=O)O)C1)Oc1cc(C(F)(F)F)ccc1-2 [compound 165]", "Result": "≥ 10000 nM"}

Query block: Name the recorded IC50 for C=CCc1ncnc(OC)c1C(=O)Nc1nc2c(s1)C(CC)(CC)Oc1cc(C(F)(F)F)ccc1-2 [compound 119] .
Result block: 1000 to 10000 nM

Query block: Name the recorded IC50 for COc1ncnc(OC)c1C(=O)Nc1nc2c(s1)C1(CCCC(C)(C)C1)Oc1cc(C(F)(F)F)ccc1-2 (stereo not drawn) [compound 35] .
Result block: 100 to 1000 nM

Query block: Name the recorded IC50 for COc1ncnc(OC)c1C(=O)Nc1nc2c(s1)C1(CCC(C(=O)NC(C)C)CC1)Oc1cc(C(F)(F)F)ccc1-2 (stereo not drawn) [compound 125] .
Result block: 1000 to 10000 nM

Query block: Name the recorded IC50 for COc1ncnc(OC)c1C(=O)Nc1nc2c(s1)C1(CN(C(=O)OC(C)(C)C)C1)Oc1cnccc1-2 [compound 156] .
Result block: 1000 to 10000 nM

Query block: Name the recorded IC50 for CCC1(CC)Oc2cc(C(F)(F)F)ccc2-c2nc(NC(=O)c3cc(Cl)nnc3OC)sc21 [compound 90] .
Result block: 1000 to 10000 nM

Query block: Name the recorded IC50 for COc1ncnc(OC)c1C(=O)Nc1nc2c(s1)C1(CCN(S(C)(=O)=O)CC1)Oc1cc(C(F)(F)F)ccc1-2 [compound 73] .
Result block: 1000 to 10000 nM

Query block: Name the recorded IC50 for CCC1CCCC2(C1)Oc1cc(C(F)(F)F)ccc1-c1nc(NC(=O)c3c(OC)ncnc3OC)sc12 (stereo not drawn) [compound 38] .
Result block: 100 to 1000 nM

###

- Tested Target: hTRPV3 (Homo sapiens, UniProt Q8NET8)
- Construct: The commercially available plasmid with the full-length cDNA of hTRPV3 (791 aa) (NM_001258205.2); host or cells: HEK293T
- Run Description: Whole-cell patch-clamp recording of hTRPV3 current in transfected HEK293T cells (2-APB induced)
- Format: cell-based
- Cond: current induced by 300 μM 2-APB, compounds tested up to 10 μM, room temperature
pIC50: −log10 of the molar value.
Recorded Metric: pIC50

Query block: GET /values?readout=pIC50&system=hTRPV3 (Homo sapiens, UniProt Q8NET8)&item= COc1ncnc(OC)c1C(=O)Nc1nc2c(s1)C1(CC(C)CC(C)C1)Oc1cc(C(F)(F)F)ccc1-2 (stereo not drawn) [compound 37]
Result block: 6.00 to 7.00

Query block: GET /values?readout=pIC50&system=hTRPV3 (Homo sapiens, UniProt Q8NET8)&item= CCC1(CC)Oc2cc(C(C)=O)ccc2-c2nc(NC(=O)c3c(OC)ncnc3OC)sc21 [compound 117]
Result block: 5.00 to 6.00

Query block: GET /values?readout=pIC50&system=hTRPV3 (Homo sapiens, UniProt Q8NET8)&item= CCC1(CC)Oc2cc(C(F)(F)F)ccc2-c2nc(NC(=O)c3cc(OC)nnc3Cl)sc21 [compound 89]
Result block: ≤ 5.00

Query block: GET /values?readout=pIC50&system=hTRPV3 (Homo sapiens, UniProt Q8NET8)&item= COCCN1CC2(C1)Oc1cc(C(F)(F)F)ccc1-c1nc(NC(=O)c3c(OC)ncnc3OC)sc12 [compound 157]
Result block: > 7.00

Query block: GET /values?readout=pIC50&system=hTRPV3 (Homo sapiens, UniProt Q8NET8)&item= COC(=O)CN1CC2(C1)Oc1cc(C(F)(F)F)ccc1-c1nc(NC(=O)c3c(OC)ncnc3OC)sc12 [compound 163]
Result block: > 7.00

Query block: GET /values?readout=pIC50&system=hTRPV3 (Homo sapiens, UniProt Q8NET8)&item= COc1ncnc(OC)c1C(=O)Nc1nc2c(s1)C1(CN(C(=O)OC(C)(C)C)C1)Oc1cc(C(C)C)ccc1-2 [compound 132]
Result block: 6.00 to 7.00

Query block: GET /values?readout=pIC50&system=hTRPV3 (Homo sapiens, UniProt Q8NET8)&item= COc1ncnc(OC)c1C(=O)Nc1nc2c(s1)C1(CN(C3(OC)CC3)C1)Oc1cc(C(F)(F)F)ccc1-2 [compound 153]
Result block: > 7.00
